System: UISO
protocol text: qHTS assay to identify novel small-molecules to repurpose for Merkel cell carcinoma treatment (AID 1296009); also: nearly all actives have a fitted effect of over 60% in size
measurement context: MCC and control cell lines, CellTiter-Glo viability, 72 h; series mostly up to 46 µM
Results filed as inconclusive are left out. The source made the active and inactive calls. Calls follow the shape of the dose curve; as a rule, active = well fitted inhibition curve with a large enough effect; inconclusive = small, poorly fitted or top-dose-only effect; inactive = flat fitted curve, though single readings scatter.
Outcomes: label 1 (active), label 0 (inactive)

compound	system under test	classification
COc1ccccc1N1CCN(CC(O)COc2cc(OC)c(OC)c(OC)c2)CC1 (stereo not drawn)	UISO	label 0
CSc1ccc(/C=C2/C(C)=C(CC(=O)O)c3cc(F)ccc32)cc1	UISO	label 0
OCCOCCN1CCN(C(c2ccccc2)c2ccc(Cl)cc2)CC1 (stereo not drawn)	UISO	label 0
CCOC(=O)C(=O)c1csc(NC=O)n1	UISO	label 0
CC(C)(C)c1ccc(O)c(O)c1	UISO	label 1
CCCc1ccc(OCC(=O)N2CCN(C(=O)COc3ccc(CCC)cc3OC)CC2)c(OC)c1	UISO	label 0
CCc1cccc2c(CCO)c[nH]c12	UISO	label 0
CO/N=C(/C(=O)N[C@@H]1C(=O)N2C(C(=O)OCOC(=O)C(C)(C)C)=C(C)CS[C@H]12)c1csc(N)n1	UISO	label 0
O=c1[nH]c2ccccc2c(=O)n1CCCl	UISO	label 0
O=C(Nc1ccc(Cl)cc1)Nc1ccc(Cl)c(C(F)(F)F)c1	UISO	label 1
O=C(CCCCC(=O)Nc1c(I)cc(I)c(C(=O)O)c1I)Nc1c(I)cc(I)c(C(=O)O)c1I	UISO	label 0
C/C(=N\O)[C@@H](C)NCC(C)(C)CN[C@H](C)/C(C)=N/O	UISO	label 0
CC(CCc1ccc2c(c1)OCO2)NN (stereo not drawn)	UISO	label 0
CC1CCCCN1CCCOC(=O)c1ccc(OC2CCCCC2)cc1 (stereo not drawn)	UISO	label 0
Cc1ccc2c(Cl)cc(Cl)c(O)c2n1	UISO	label 0
CCOC(=O)c1ccc(NC(=O)CN2CCCCC2)cc1	UISO	label 0
CN(C(=O)C(Cl)Cl)c1ccc(OC(=O)c2ccco2)cc1	UISO	label 0
CCOCCn1c(C2CCN(CCc3ccc(C(C)(C)C(=O)O)cc3)CC2)nc2ccccc21	UISO	label 0
O=C(O)Cn1c(=O)n(Cc2ccc(Br)cc2F)c(=O)c2ccc(Cl)cc21	UISO	label 0
COC(=O)c1ccc(NC(C)=O)cc1OC	UISO	label 0
Cc1ccc(C(=O)Oc2ccc(C(O)CNC(C)(C)C)cc2OC(=O)c2ccc(C)cc2)cc1 (stereo not drawn)	UISO	label 0
CCN1CCCC1CN (stereo not drawn)	UISO	label 0
O=C(OCC(COC(=O)c1cccnc1)(COC(=O)c1cccnc1)COC(=O)c1cccnc1)c1cccnc1	UISO	label 0

###

protocol text: qHTS assay for measurement of the activity of small molecule inhibitors on Zika virus induced Caspase-3 activity in human iPSC derived neural progenitor cells (hNPCs) (AID 1224857); also: nearly all actives have a fitted effect of over 65% in size
measurement context: hNPCs ZIKV-induced caspase-3/7, Caspase-Glo luminescence, 6 h; series mostly up to 45.7 µM
Results filed as inconclusive are left out. Calls of active or inactive are those of the source. The call rests on the fitted dose curve; in most records, active means well fitted inhibition curve with a large enough effect; inconclusive means small, poorly fitted or top-dose-only effect; inactive means no such curve, though single readings can be large or run the other way.
Outcomes: y (active), n (inactive)

compound	classification
CCCc1ccc(OCC(=O)N2CCN(C(=O)COc3ccc(CCC)cc3OC)CC2)c(OC)c1	n
O=C1Cc2cc(Cl)ccc2N1	n
CC(C)(C)c1ccc(O)c(O)c1	y
OC[C@]1(O)OC[C@@H](O)[C@H](O)[C@@H]1O	n
CC(=O)N(c1onc(C)c1C)S(=O)(=O)c1ccc(N)cc1	n
Cc1ccc(C(C)OC(=O)C2(C)CCC(C(=O)O)C2(C)C)cc1 (centres undefined)	n
C[C@H]1NCc2cc(-c3ccc4c(=O)c(C(=O)O)cn(C5CC5)c4c3OC(F)F)ccc21	n
CN(C(=O)C(Cl)Cl)c1ccc(OC(=O)c2ccco2)cc1	n
CCc1cccc2c(CCO)c[nH]c12	n
CCCCC(CC)CNC(=O)CC(C)OC(=O)CCC(=O)O (centres undefined)	n
O=[N+]([O-])c1cncn1CCN1CCOCC1	n
CC(C)CCCC(C)NCCC(C)C (centres undefined)	n
CC(C)C(=O)Nc1cccc(C2CN3CCSC3=N2)c1 (centres undefined)	n
Nc1ccc2c(c1)CN1C(=O)c3ccccc3C1=N2	n
C[C@]12CCC(=O)C=C1CC[C@@H]1[C@@H]2[C@@H](O)C[C@@]2(C)[C@H]1CC[C@]2(O)C(=O)COC(=O)CCC(=O)O	n
CCOC(=O)Oc1ccc(CCNC(=O)[C@H](CCSC)NC(C)=O)cc1OC(=O)OCC	n
Nc1cc(C(F)(F)F)ccc1S	y
Oc1ccc(CCNCCCCCCNCCc2ccccc2)cc1O	n
CCC(C(=O)OCCN1CCOC(c2ccccc2)C1C)c1ccccc1 (centres undefined)	n
N#C/C(=C1/SC[C@@H](c2ccc(Cl)cc2Cl)S1)n1ccnc1	n
CCCC(=O)O[C@]1(C(=O)CC)CC[C@H]2[C@@H]3CCC4=CC(=O)CC[C@]4(C)[C@H]3[C@@H](O)C[C@@]21C	n
CC(C)N(CCC(=O)c1ccc2ccccc2c1)Cc1ccccc1	n
COc1ccc2c(c1)CCCC2=O	n
CN1CC(=O)N2[C@H](c3ccc4c(c3)OCO4)c3[nH]c4ccccc4c3C[C@@H]2C1=O	n

###

Test system: PC49
protocol text: qHTS profiling for inhibitors of Plasmodium falciparum proliferation (AID 504749); also: nearly all actives have a fitted effect of over 60% in size; also: potency is read from the fitted curve at half-maximal effect
measurement context: P. falciparum in erythrocytes, SYBR Green DNA, 72 h; series mostly up to 28.7 µM
Records with an inconclusive call do not appear. Active and inactive are the calls of the source. The call rests on the fitted dose curve; in most records, active means well fitted inhibition curve with a large enough effect; inconclusive means small, poorly fitted or top-dose-only effect; inactive means flat fitted curve, though single readings scatter.

molecule	Potency
Nc1ncnc2nc[nH]c12	inactive
CCCCCCCCCCCCCC[N+](C)(C)C	inactive
O=[N+]([O-])c1ccc(O)c2ncccc12	inactive
O=C(Nc1ccc(Cl)cc1)Nc1ccc(Cl)c(Cl)c1	2.24 µM (active)
CCCCCCCCCCCCCCCC[N+](C)(C)Cc1ccccc1	10 µM (active)
CC(NCCC(c1ccccc1)c1ccccc1)c1ccccc1 (configuration not stated)	5.01 µM (active)
CN1CCCN(C(c2ccccc2)c2ccc(Cl)cc2)CC1 (configuration not stated)	5.01 µM (active)

###

Tested on: CP217
protocol text: qHTS profiling for inhibitors of Plasmodium falciparum proliferation (AID 504749); also: nearly all actives have a fitted effect of over 60% in size; also: potency is read from the fitted curve at half-maximal effect
measurement context: P. falciparum in erythrocytes, SYBR Green DNA, 72 h; series mostly up to 28.7 µM
Inconclusive results are not listed. The source made the active and inactive calls. Calls follow the shape of the dose curve; as a rule, active = well fitted inhibition curve with a large enough effect; inconclusive = small, poorly fitted or top-dose-only effect; inactive = flat fitted curve, though single readings scatter.
Potency listing for selected molecules.

molecule	Potency
CCCCCCCCCCCCCC[N+](C)(C)C	8.91 µM (active)
CN1CCC(Nc2ncc3ncnc(Nc4ccc(F)c(Cl)c4)c3n2)CC1	11.2 µM (active)
CN1CCCN(C(c2ccccc2)c2ccc(Cl)cc2)CC1 (stereo not drawn)	14.1 µM (active)
CC(NCCC(c1ccccc1)c1ccccc1)c1ccccc1 (stereo not drawn)	8.91 µM (active)
CCCCCCCCCCCCCCCC[N+](C)(C)Cc1ccccc1	3.16 µM (active)
CCCCCCCCCCCCCCCC[n+]1ccccc1	5.62 µM (active)
O=C(Nc1ccc(Cl)cc1)Nc1ccc(Cl)c(Cl)c1	2.24 µM (active)

###

protocol text: qHTS for differential inhibitors of proliferation of Plasmodium falciparum line 3D7 (AID 1876); also: potency is read from the fitted curve at half-maximal effect
measurement context: P. falciparum 3D7 proliferation inhibition; series mostly up to 28.7 µM
Results filed as inconclusive are left out. Calls of active or inactive are those of the source. Calls come from the whole dose curve; as a rule, active = well fitted curve in the direction sought with a large enough effect; inconclusive = small, poorly fitted or top-dose-only effect, or another doubt; inactive = no such curve, though single readings can be large or run the other way.

molecule smiles	Potency
O=C1NC(c2cccc([N+](=O)[O-])c2)=CCN1c1ccccc1O	inactive
COc1ccccc1N1CCN(CCN2C(=O)CC3(CCCC3)CC2=O)CC1	inactive
CC(C)N(CCC(=O)c1ccc2ccccc2c1)Cc1ccccc1	inactive
CN(C)c1cc2c(Nc3ccc4c(cnn4Cc4ccccc4)c3)ncnc2cn1	3.55 µM (active)
O=[N+]([O-])c1ccc(-c2nc(-c3ccc(F)cc3)c(-c3ccncc3)[nH]2)cc1	3.55 µM (active)
C[N+](C)(C)CCO	inactive
C[C@]12CCC(=O)C=C1CC[C@@H]1[C@@H]2[C@@H](O)C[C@@]2(C)[C@H]1CC[C@]2(O)C(=O)COC(=O)CCC(=O)O	inactive

###

activity change % (negative = inhibition) listing for selected compounds.
system under test: Thyroid hormone receptor beta (Homo sapiens)
protocol text: qHTS assay for small molecule antagonists of thyroid hormone receptor beta signaling (AID 588547);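 also: cells stimulated with 0.4 nM T3 agonist during compound exposure; % is scaled to controls: 0 for no effect and ±100 for the full control effect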
measurement context: TR-UAS-bla HEK293, beta-lactamase ratio, antagonist mode, 18 h
Inconclusive results are not listed.
readout: activity change % (negative = inhibition) (%)

compound	result
CN1C(=O)c2ccccc2C1=O	-4.79
OCCOCCN1CCN(C(c2ccccc2)c2ccc(Cl)cc2)CC1 (stereo unspecified)	-10.5
CCCCCCCCCCCC[N+](C)(C)Cc1ccccc1	-19.6
Brc1ccccc1-c1ccccc1	-16.6
CC(=O)OC/C=C(C)/C=C/C=C(C)/C=C/C1=C(C)CCCC1(C)C	1.82
O=C(NO)c1ccccc1	-5.82

###

protocol text: A High-Content qHTS Against Drug Library for the Identification of Small Molecules that Inhibit DYT1 Early Onset Primary Dystonia-Associated Cell Pathology (AID 1645839)
measurement context: HEK293 Flp-In EGFP-delE TorsinA, punctate imaging, 48 h; series mostly up to 46.1 µM
Excerpt: Nicole Calakos M.D., Ph.D. Duke University School of Medicine, Durham, NC […] The bioassay described herein is a high-content image screen with two readouts. The "%pathology" readout is the primary qHTS data channel, while the "cellcount" is the counterscreen qHTS channel. Desired active compounds are those that show inhibition in %pathology channel but no activity or minimal toxicity in cellcount readout. […]
Inconclusive results are not listed. Active and inactive are the calls of the source. The call rests on the fitted dose curve.
Outcomes: yes for active, no for inactive

molecule	classification
Nc1c[n+](N2CCOCC2)no1	no
COc1ccc(CCC(C)=O)cc1	no
COCCOCC(OC)OC	no
O=C(O)Cc1ccc(OCCNC[C@H](O)c2ccccc2)cc1	no
O=C(O)CCCC[P+](c1ccccc1)(c1ccccc1)c1ccccc1	no
Nc1nc2ccccc2n1Cc1ccc(F)cc1	no
CCn1ccc(NS(=O)(=O)c2ccc(N)cc2)nc1=O	no
CC(=O)N(CC(=O)N(C)C)c1ccccc1	no
COc1ccc2c(c1)CCCC2=O	no
CCc1cc2cc(OC)c(OC)cc2c(Cc2ccccc2)n1	no
CCCCC(=O)OCC(=O)[C@H]1[C@H](C)C[C@H]2[C@@H]3C[C@H](F)C4=CC(=O)C=C[C@]4(C)[C@@]3(F)[C@@H](O)C[C@@]21C	no
CCN1CCN(c2cc(-c3ccc(F)cc3)c3c(n2)CCCCCC3)CC1	no
Cc1cc2nc3ccc(=[N+](C)C)cc-3sc2cc1N	yes
Cc1ccc2c(Cl)cc(Cl)c(O)c2n1	no
CN(CC1(C)CCCO1)S(=O)(=O)c1ccc(Cl)c(S(N)(=O)=O)c1 (stereo unspecified)	no
C[C@H](N)C(=O)N[C@@H](C)C(=O)NC1[C@H]2CN(c3nc4c(cc3F)c(=O)c(C(=O)O)cn4-c3ccc(F)cc3F)C[C@@H]12 (stereo partly specified)	no
Nc1nnnn1-c1ccccc1	no
NS(=O)(=O)c1ccc(N2CCCCS2(=O)=O)cc1	no
O=C1OC2(c3ccccc31)c1cc(I)c(O)c(I)c1Oc1c2cc(I)c(O)c1I	no
Cc1ccc(-c2ccccc2C#N)cc1	no
O=C(O)c1cn(C2CC2)c2cc(Cl)c(F)cc2c1=O	no
CCCCC(O)/C=C(C)/C=C/C=C/C(=O)N1CCCC1=O (stereo unspecified)	no
COC(=O)/C=C\C(=O)OC	no
CN(C)CCCOC1(Cc2ccccc2)CCCCCC1	no
CCS(=O)(=O)c1ccc(OC)c(C(=O)OC)c1	no
CCCCCC1Nc2cc(C(F)(F)F)c(S(N)(=O)=O)cc2S(=O)(=O)N1 (stereo unspecified)	no
C/C(=C1\CCOC(=O)S1)N(C=O)Cc1cnc(C)nc1N	no
CCOc1c(N2CCOCC2)cnn(C)c1=O	no
Cc1ccc(C(C)OC(=O)C2(C)CCC(C(=O)O)C2(C)C)cc1 (stereo unspecified)	no
COc1cc(/C=C/C(N)=O)cc(OC)c1OC	no
COc1ccc([C@@H]2Sc3ccccc3NC(=O)[C@@H]2O)cc1	no
COc1cc2c(cc1OC)CN(C(=O)[C@H](C)N[C@@H](CCc1ccccc1)C(=O)O)[C@H](C(=O)O)C2	no
N[C@@H](Cc1cc(I)c(O)c(I)c1)C(=O)O	no
O=C(O)CCCC[C@@H]1SC[C@@H]2NC(=O)N[C@@H]21	no
CC(C)C(=O)Nc1cccc(C2CN3CCSC3=N2)c1 (stereo unspecified)	no
Nc1c2ccccc2nc2ccccc12	no
O=C1CC2(CCCC2)CC(=O)N1CCNCC1COc2ccccc2O1 (stereo unspecified)	no
O=C1c2ccccc2CCc2ccccc21	no
CNC(=O)c1cnn(-c2nc(N)c3ncn([C@@H]4O[C@H](CO)[C@@H](O)[C@H]4O)c3n2)c1	no
CC(=O)OCC(=O)Nc1cc(C#N)cc(NC(=O)COC(C)=O)c1Cl	no
CC(=O)N1CCN(c2ccc(O)cc2)CC1	no
CC(=O)OCC(=O)[C@@]1(O)[C@H](OC(C)=O)C[C@H]2[C@@H]3CCC4=CC(=O)C=C[C@]4(C)[C@@]3(F)[C@@H](O)C[C@@]21C	no
CCOC(=O)O[C@]1(C(=O)OCCl)CC[C@H]2[C@@H]3CCC4=CC(=O)C=C[C@]4(C)[C@H]3[C@@H](O)C[C@@]21C	no
CC(C)C(=O)OCc1cccc(OC(=O)[C@@H]2N3C(=O)[C@@H](NC(=O)Cc4ccccc4)[C@H]3SC2(C)C)c1	no
O=C(C1CCCCC1)N1CC(=O)N2CCCc3ccccc3C2C1 (stereo unspecified)	no
O=C(CCOCCOCCOCCOCCC(=O)Nc1c(I)cc(I)c(C(=O)O)c1I)Nc1c(I)cc(I)c(C(=O)O)c1I	no
